Molecular target: UniProt P04799
Sequence (P04799 whole entry): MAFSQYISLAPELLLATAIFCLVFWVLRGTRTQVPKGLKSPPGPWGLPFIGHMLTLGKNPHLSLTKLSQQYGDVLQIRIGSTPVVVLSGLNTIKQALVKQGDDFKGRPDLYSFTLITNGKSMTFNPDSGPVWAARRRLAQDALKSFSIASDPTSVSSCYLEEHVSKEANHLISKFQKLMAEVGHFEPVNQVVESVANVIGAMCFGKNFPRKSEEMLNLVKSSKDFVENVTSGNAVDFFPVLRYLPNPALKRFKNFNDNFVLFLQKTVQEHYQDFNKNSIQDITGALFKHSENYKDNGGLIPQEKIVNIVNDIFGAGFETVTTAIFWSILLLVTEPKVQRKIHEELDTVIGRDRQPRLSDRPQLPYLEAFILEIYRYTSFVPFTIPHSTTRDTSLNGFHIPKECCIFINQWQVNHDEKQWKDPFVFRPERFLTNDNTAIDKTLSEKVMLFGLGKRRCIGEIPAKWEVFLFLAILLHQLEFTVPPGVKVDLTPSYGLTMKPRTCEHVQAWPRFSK
Experiment: Binding affinity to rat recombinant CYP1A2 expressed in Escherichia coli assessed as fraction unbound by equilibrium dialysis method
Property Measured: fraction unbound
Answers are plain numbers.

Ask: Specify the recorded fraction unbound for CCOc1ccc(NC(C)=O)cc1 , system: UniProt P04799.
Result: 0.98
